The origin of these recorded values is patent US20210220408A1.

# Tested on: mobilized peripheral blood CD34+ cells
# Experiment: CD34+ expansion assay
# Assay type: cell-based
# Condition parameters: Homo sapiens; read-out: CD34 Frequency EC50
We begin with a simple list: items and their reported EC50.

| Molecule | Metric name | Reported measurement |
| --- | --- | --- |
| Cn1c(SCc2ccc(-c3ccccc3)cc2)nnc1C(F)(F)F | EC50 | 1 to 5 µM |
| N#Cc1nc(NCC(O)c2ccc(OC(F)F)cc2)ccc1Cl (stereo not drawn) | EC50 | 1 to 5 µM |
| COc1c(C)cccc1C(=O)Nc1cc(-c2ccc(F)cc2)nn1C | EC50 | 1 to 5 µM |
| CSc1ccc(N2C(=O)C3Cc4ccccc4CN3C2=O)cc1 (stereo not drawn) | EC50 | 0.5 to 1 µM |
| CC(=O)c1c(C)nc2nc(SCc3cccc(Cl)c3)nn2c1C | EC50 | 1 to 5 µM |

Pending molecule:
# input Give EC50 for N#Cc1ccc(-c2ccncc2)nc1SCc1ccccn1
# output < 0.5 µM
